Some molecules, each annotated with its measured Hepatotoxicity (moderate).
- assay_comment: Highest frequency of moderate liver toxicity observed during clinical trials, expressed as a percentage. [column '% BIOL' in source]
- condition_info: human
Express the reported value numerically, then name its unit.

molecule="CC[C@@]1(O)C(=O)OCc2c1cc1n(c2=O)Cc2cc3c(CN(C)C)c(O)ccc3nc2-1 [TOPOTECAN]" endpoint_result=5.3%
molecule="CCOC(Nc1ccc(C(=O)O)cc1)C(=O)c1ccc(-c2ccccc2)cc1 (stereo not drawn) [XENAZOIC ACID]" endpoint_result=0%
molecule="CCOC(=O)n1ccn(C)c1=S [CARBIMAZOLE]" endpoint_result=0%

Prompt: Hepatotoxicity (moderate) lookup needed for CN1CCN(CCCN2c3ccccc3Sc3ccccc32)CC1 [PERAZINE] , thanks.
Response: 43%

Prompt: Consider the molecule shown here: CCCCOCC(CN1C(=O)N(CC(COCCCC)OC(N)=O)C(=O)C(CC)(c2ccccc2)C1=O)OC(N)=O (stereo not drawn) [DIFEBARBAMATE] What is its recorded Hepatotoxicity (moderate)?
Response: 0%

Prompt: Consider the molecule CC(C)(Oc1ccc(CCNC(=O)c2ccc(Cl)cc2)cc1)C(=O)O [BEZAFIBRATE] and give its measured Hepatotoxicity (moderate).
Response: 10%

Prompt: Query (molecule): CC(C)[C@H](N)C(=O)OCC(CO)OCn1cnc2c(=O)nc(N)[nH]c21 (stereo partly drawn) [VALGANCICLOVIR] ; field requested: Hepatotoxicity (moderate)
Response: 3%

Prompt: Field request: Hepatotoxicity (moderate) | item: CC(C)Nc1ncccn1 [ISAXONINE]
Response: 0%

----------
- condition_info: human
measurement_label: Hepatotoxicity (cytolytic)
# output: bare number, no unit

Observe how each entry below is paired with its result.
substance="INTERFERON ALFA-2B" measurement_label="Hepatotoxicity (cytolytic)" endpoint_result=8
substance="NADROPARIN CALCIUM" measurement_label="Hepatotoxicity (cytolytic)" endpoint_result=0
substance=INFLIXIMAB measurement_label="Hepatotoxicity (cytolytic)" endpoint_result=4
substance=CARBOPLATIN measurement_label="Hepatotoxicity (cytolytic)" endpoint_result=0
substance="INTERFERON ALFA" measurement_label="Hepatotoxicity (cytolytic)" endpoint_result=2
substance=COLISTIN measurement_label="Hepatotoxicity (cytolytic)" endpoint_result=0

Attention now turns to another entry.
Prompt: What does the data say about its Hepatotoxicity (cytolytic)? Entry: `ADALIMUMAB`
Response: 0

----------
- assay_comment: Times to onset, minimal and maximal, observed in the indexed observations. [column 'DELAI' in source]
- condition_info: human
# reported Hepatotoxicity (time to onset); entries follow

Look over these answered cases.
compound=CC(=O)Nc1ccc(O)cc1 endpoint_result="1 day - 12 years"
compound="CCCC(C)(COC(N)=O)COC(=O)NC(C)C (stereo not given)" endpoint_result="2 weeks"
compound=CC1(C)S[C@@H]2[C@H](NC(=O)[C@H](N)c3ccc(O)cc3)C(=O)N2[C@H]1C(=O)O endpoint_result="3 days - 8 weeks"
compound="CC(Cc1ccccc1)NN (stereo not given)" endpoint_result="2 weeks - 7 months"

Prompt: Fill in: Hepatotoxicity (time to onset) of COc1ccc(Cl)cc1C(=O)NCCc1ccc(S(=O)(=O)NC(=O)NC2CCCCC2)cc1 [GLYBURIDE] is ___
Response: 2 weeks - 7 years

----------
- condition_info: human, serum
measurement_label: Hepatotoxicity (acute)
Lab note: record the figure alone, no unit after it.

Prompt: For the compound shown here, `CN(C)CCOc1ccc(/C(=C(/CCCl)c2ccccc2)c2ccccc2)cc1` , give the reported Hepatotoxicity (acute).
Response: 2

----------
- assay_comment: Presence of at least one case with successful reintroduction. [column 'REINT' in source]
- condition_info: human
measurement_label: Hepatotoxicity (successful reintroduction)

compound="CC(=O)O[C@H]1CC[C@H]2[C@@H]3CC[C@H]4CC(=O)C=C(C)[C@]4(C)[C@H]3CC[C@]12C [METHENOLONE ACETATE]" endpoint_result=yes
compound=N=C(N)c1ccc(OCCCCCOc2ccc(C(=N)N)cc2)cc1 endpoint_result=yes
compound=O=C(O)COc1nn(Cc2ccccc2)c2ccccc12 endpoint_result=yes

----------
- assay_comment: Highest frequency of acute liver toxicity observed during clinical trials, expressed as a percentage. [column '% AIGUE' in source]
- condition_info: human
measurement_label: Hepatotoxicity (acute) (%)
Use % as the unit, but write only the number.

Would you please look over these solved cases?
molecule=CC(=O)O[C@H]1C[C@@]2(C)[C@@H](C[C@@H](O)[C@H]3[C@@]4(C)CC[C@@H](O)[C@@H](C)[C@@H]4CC[C@@]32C)/C1=C(\CCC=C(C)C)C(=O)O endpoint_result=34
molecule=CC[C@@]1(O)C[C@H](O[C@H]2C[C@H](N(C)C)[C@H](O[C@H]3C[C@H](O)[C@H](O[C@H]4CCC(=O)[C@H](C)O4)[C@H](C)O3)[C@H](C)O2)c2c(cc3c(c2O)C(=O)c2c(O)cccc2C3=O)[C@H]1C(=O)OC endpoint_result=0
molecule="O=NN(CCCl)C(=O)N[C@H]1C(O)O[C@H](CO)[C@@H](O)[C@@H]1O (stereo partly drawn)" endpoint_result=0

Prompt: Which value of Hepatotoxicity (acute) has been reported for CC(C)NCC1CCc2cc(CO)c([N+](=O)[O-])cc2N1 (stereo not drawn) in the records?
Response: 0

Prompt: Hepatotoxicity (acute) lookup needed for `CCCC(=O)O[C@H]1[C@H](C)O[C@@H](O[C@H]2[C@H](N(C)C)[C@@H](O)[C@H](O[C@H]3[C@@H](CC=O)C[C@@H](C)[C@@H](O)/C=C/C=C/C[C@@H](C)OC(=O)C[C@@H](O)[C@@H]3OC)O[C@@H]2C)C[C@@]1(C)OC(=O)CC` , thanks.
Response: 0

Prompt: Given the molecule `C[C@@H](O)[C@H]1C(=O)N2C(C(=O)O)=C(S[C@@H]3CN[C@H](C(=O)Nc4cccc(C(=O)O)c4)C3)[C@H](C)[C@H]12` , what is its reported Hepatotoxicity (acute)?
Response: 0

Prompt: Returns the measured Hepatotoxicity (acute) for the input molecule. Input: `Nc1nc(=O)[nH]cc1F`
Response: 2

Prompt: Could you tell me which Hepatotoxicity (acute) is on file for `CC[C@H]1OC(=O)[C@H](C)[C@@H](O[C@H]2C[C@@](C)(OC)[C@@H](O)[C@H](C)O2)[C@H](C)[C@@H](O[C@@H]2O[C@H](C)C[C@H](N(C)C)[C@H]2O)[C@](C)(O)C[C@@H](C)[C@@H]2N[C@@H](COCCOC)O[C@H]([C@H]2C)[C@]1(C)O` ?
Response: 0

Prompt: Give the measured Hepatotoxicity (acute) of CCCCC1C(=O)N(c2ccccc2)N(c2ccc(O)cc2)C1=O (stereo not drawn) [OXYPHENBUTAZONE ANHYDROUS] .
Response: 0

Prompt: Dear colleague, I am looking for the recorded Hepatotoxicity (acute) of the following molecule: `COC(=O)c1nc2cc(Cl)c3cccnc3c2o1`
Response: 0

Prompt: Give the measured Hepatotoxicity (acute) of `O=c1[nH]c(=O)n([C@@H]2O[C@H](CO)[C@@H](O)[C@@H]2F)cc1I` .
Response: 33.3

Prompt: What measured Hepatotoxicity (acute) goes with NS(=O)(=O)c1cc(C(=O)O)cc(N2CCCC2)c1Oc1ccccc1 [PIRETANIDE] ?
Response: 0

Prompt: What does the record list as Hepatotoxicity (acute) for `C[C@]1(O)CC[C@H]2[C@@H]3CCC4=CC(=O)CC[C@@H]4[C@H]3CC[C@@]21C` ?
Response: 0

----------
- condition_info: human, serum, 4383 h
measurement_label: Hepatotoxicity (chronic liver disease)

Answered cases to consult:
compound=O=C(O)c1nn(Cc2ccc(Cl)cc2Cl)c2ccccc12 endpoint_result=0
compound="O=c1[nH]c(=O)n(C2CCCO2)cc1F (centres undefined)" endpoint_result=2
compound="CN(C)CC/C=C1\\c2ccccc2CSc2ccccc21 [DOTHIEPIN]" endpoint_result=0

Prompt: Could you share which Hepatotoxicity (chronic liver disease) value was measured for `C[C@H](CCc1ccccc1)NC[C@H](O)c1ccc(O)c(C(N)=O)c1` ?
Response: 0

Prompt: Quick one: Hepatotoxicity (chronic liver disease) of NCc1ccccc1CC(=O)N[C@@H]1C(=O)N2C(C(=O)O)=C(CSc3nnnn3CC(=O)O)CS[C@H]12 [CEFORANIDE] ?
Response: 0

Prompt: So what does the record say about Hepatotoxicity (chronic liver disease) for `Oc1ccc(Cl)cc1Cc1cc(Cl)ccc1O` ?
Response: 0

Prompt: Need Hepatotoxicity (chronic liver disease), item `CO[C@]12CC[C@@]3(C[C@@H]1[C@](C)(O)C(C)(C)C)[C@H]1Cc4ccc(O)c5c4[C@@]3(CCN1CC1CC1)[C@H]2O5`
Response: 0

Prompt: I have this compound here, COc1ccc2[nH]c([S+]([O-])Cc3ncc(C)c(OC)c3C)nc2c1 (centres undefined) , and I need its recorded Hepatotoxicity (chronic liver disease).
Response: 0

Prompt: So what's the measured Hepatotoxicity (chronic liver disease) for this one? `CCOC(=O)NNc1nncc2ccccc12`
Response: 0
